Would you mind telling me the reported Thrombin at 100 μM % of each entry?
Target: Thrombin, from Human Plasma (Homo sapiens, UniProt P00734)
Test: Enzymatic assay, thrombin
Where a SMILES comes first, the peptide text is derived from it.
Answers are plain numbers, in %.

Past entries and their recorded results:
{"columns": ["COMPOUND", "Thrombin at 100 μM % [%]"],
 "data": [
  ["CCCC[C@@H]1NC(=O)[C@@H]2CCCN2C(=O)[C@H]2CCCN2C(=O)[C@H](CC2CCCCC2)NC(=O)[C@@H]2CSSC[C@H](NC1=O)C(=O)N[C@@H]([C@@H](C)O)C(=O)N[C@@H](C)C(=O)N[C@@H](CO)C(=O)N[C@@H]([C@@H](C)CC)C(=O)N1CCC[C@H]1C(=O)N1CCC[C@H]1C(=O)N[C@@H](CCC(N)=O)C(=O)N2 [Ex. 97] (HELM PEPTIDE1{[Nle].C.T.A.S.I.P.P.Q.C.[Cha].[dP].P}$PEPTIDE1,PEPTIDE1,2:R3-10:R3|PEPTIDE1,PEPTIDE1,1:R1-13:R2$$$V2.0)", 11.6],
  ["CCCC[C@@H]1NC(=O)[C@@H]2CCCN2C(=O)[C@H]2CCCN2C(=O)[C@H](Cc2ccc(O)cc2)NC(=O)[C@@H]2CSSC[C@H](NC1=O)C(=O)N[C@@H]([C@@H](C)O)C(=O)N[C@@H](C)C(=O)N[C@@H](CO)C(=O)N[C@@H]([C@@H](C)CC)C(=O)N1CCC[C@H]1C(=O)N1CC(NC(=O)c3ccccc3)C[C@H]1C(=O)N[C@@H](CCC(N)=O)C(=O)N2 (single isomer, unassigned) [Ex. 138]", 17.1],
  ["CC[C@H](C)[C@@H]1NC(=O)[C@@H]2CCCN2C(=O)[C@H]2CCCN2C(=O)[C@H](CCCNC(=N)N)NC(=O)[C@@H]2CSSC[C@H](NC1=O)C(=O)N[C@@H]([C@@H](C)O)C(=O)N[C@@H](CCCCN)C(=O)N[C@@H](CO)C(=O)N[C@@H](CC(=O)O)C(=O)N1CCC[C@H]1C(=O)N1CCC[C@H]1C(=O)N[C@@H](CC1CCCCC1)C(=O)N2 [Ex. 20] (HELM PEPTIDE1{I.C.T.K.S.D.P.P.[Cha].C.R.[dP].P}$PEPTIDE1,PEPTIDE1,2:R3-10:R3|PEPTIDE1,PEPTIDE1,1:R1-13:R2$$$V2.0)", 28]
]}

(Q) Would you mind telling me what Thrombin at 100 μM % value was observed for CCCC[C@@H]1NC(=O)[C@@H]2CCCN2C(=O)[C@H]2CCCN2C(=O)[C@H](Cc2ccc(O)cc2)NC(=O)[C@@H]2CSSC[C@H](NC1=O)C(=O)N[C@@H]([C@@H](C)O)C(=O)N[C@@H](C)C(=O)N[C@@H](CO)C(=O)N[C@@H](C1CCCCC1)C(=O)N1CCC[C@H]1C(=O)N1CCC[C@H]1C(=O)N[C@@H](CCC(N)=O)C(=O)N2 [Ex. 84] (HELM PEPTIDE1{[Nle].C.T.A.S.[O=C([C@@H](N[*:1])C1CCCCC1)[*:2]].P.P.Q.C.Y.[dP].P}$PEPTIDE1,PEPTIDE1,2:R3-10:R3|PEPTIDE1,PEPTIDE1,1:R1-13:R2$$$V2.0) ?
(A) 20.6
